assayed-target: T1, Ube2T T23R+W25Q (human, UniProt Q9NPD8 1-197, T23R | W25Q)
T1 sequence: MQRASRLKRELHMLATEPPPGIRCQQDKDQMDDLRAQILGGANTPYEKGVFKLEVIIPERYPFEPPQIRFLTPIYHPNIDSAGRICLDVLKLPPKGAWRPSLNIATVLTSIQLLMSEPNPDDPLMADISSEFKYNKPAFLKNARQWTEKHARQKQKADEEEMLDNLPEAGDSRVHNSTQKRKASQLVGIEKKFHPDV
assay-summary: ITC
pKd: −log10 of the molar value.
measurement-type: pKd

Dear colleague, please send me the reported pKd for FANCL RING (FANCL^R) (domain or fragment) EIDFPARAILEKSDFTMDCGICYAYQLDGTIPDQVCDNSQCGQPFHQICLYEWLRGLLTSRQSFNIIFGECPYCSKPITLKMSGRKH when you can.
~6.60

Where these numbers come from: paper PMC7035956
